test system: PPARg:RXRa 30nM:10nM, anti-RXR (NR concentration 30 nM, RXRa partner concentration 10 nM); experiment: PBM binding z-score (relative to random genomic background probes); higher = stronger binding; sequences stand for … in GC…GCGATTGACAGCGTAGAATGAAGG
Measured PBM binding z-score, listed per entry for reference.

residues	PBM binding z-score
CCGACTGGGGCATAAGGTTAGCATAAGCCAGCCC	0.353
CTAACTAGGTCATTGACAGGACAGTGAATAGTAA	4.79
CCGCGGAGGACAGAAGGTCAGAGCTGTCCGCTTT	-0.857
TTACCAAGGGGAAAGGTCGTTGATGCACGCCTTG	4.47
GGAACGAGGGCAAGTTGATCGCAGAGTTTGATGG	-0.211
CCGAGCAGGCCAATCTGGGTCACTCAAGGCTTGA	-0.249
TCTCGGAGGACACGAACGTCAGAGCTTTCCAGAG	1.95
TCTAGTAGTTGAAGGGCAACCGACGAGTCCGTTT	2.83
GATACAGGATCAGCTAGAGGCCAGAGTATGGAAA	0.0459
TTACCAAGGTGAAGGTCGTTGGTCCCTCTGTAGA	1.8
ATCTCTAGGTAATGATAGTTCAGTGAATGCAAAT	0.371
CAAACTAGGTCACCGGAAGGTCAAATTCCGCATG	6.22
TCATATAGGTGAACAGGTGAAAGTCCGTAAGTTA	4.3
TCTTGTCGATCAATAGAGGTTAAGAAAGTGCGCT	2.67
CCCACTGGGCCACGAAAGGTCATTGATTCAGTGA	1.85
TCTCGGAGGACACGAAGGTCAGTGCTTTCCAGAG	2.2
CCAGACAGGTGAATGGTAACTCAGTCTGGTACGC	-0.647
TCTTGTAGATCAATAGAGGGTAAGAAAGTGCGCT	2.61
GGAACCAGGGCAAAGTTGATAGCATCTGTCGACG	6.29
CCTACTGGGCCAAAGGGCATTGATTCCAATGCTC	8.24
CCTGCTAGGTCAATGGTCAGCGAAAGCAGCTCGC	3.2
AGAATGAGTTTATTAAGATCAGGGAATTGCGGTC	-0.0755
GCTATTAGTTGAAAGGGGAACCGAATGATTCTCG	1.25
ATCTCTAGGTAAAAGTTCAGAGAATCCCGAGGAT	7.79
GGAACGAGGGCAAGTTGATGGCAGAGTTTGATGG	-0.146
TGTCAAAGTTCAAAGGTAACGTACGTATCCACAC	4.86
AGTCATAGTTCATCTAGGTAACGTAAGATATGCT	1.32
CCGACTGGGGCAAAGGTTAGCATACTCAGTACGA	9.08
CCTATTAGTTGACCACAAGGGCAACCGAAGCTCG	0.1
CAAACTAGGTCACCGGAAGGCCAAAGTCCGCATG	4.66
TCTATTAGTTAATTAGGGCAACCGAAACAGCGGA	3.88
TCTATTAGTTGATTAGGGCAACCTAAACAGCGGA	3.39
ATCGAAAGCTCGTGAGGTGAGTATACAGAAAGGC	0.112
TGTCAAAGTTCAGAGGTAACGTAAGTATCCACAC	3.46
TCGAGTAGGTTACCAATGGGGCAATCAGCTTTCT	1
ATCTCTAGGTAAAGTTCAGTGACAGATCGATAGA	2.51
ACTATTAGTTGAGACGAGGGCAACCGCTAGGTTG	-0.122
CAAACTAGGTCAAGGTCAAAGTGGGTTTGTGCCA	6.5
CAAACTAGGTTACAGAGGTCAAAGTCCGTGCGTA	5.19
TCTATTAGTTGATGGGCAACCGACGAGTCCGTTT	3.41
CGAACGAGGGCAAGAGTTGATAGCAAATGCCGAT	0.687
GGAACGAGGGCAAGTTTATAGCAGAGTTTGATGG	0.337
ATCTCTAGGTAAGACTCAATTCAGTGAAGAACGC	0.402
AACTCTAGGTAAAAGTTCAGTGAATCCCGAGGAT	6.5
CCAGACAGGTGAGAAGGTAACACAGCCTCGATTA	0.112
